Tested on: occludin in A549 cells
Assay Explanation: High-content imaging of junctional occludin staining in A549 cells
Format: cell-based
Condition Label: area of occludin staining normalized to cell number and DMSO; 24 h; 9-point range up to 100 µM; NA = no IC50 curve could be established
Endpoint Name: IC50 (µM)
Report only the number, with the unit µM understood.

Exercise: Name the recorded IC50 for [Cl][Cd][Cl] [Cadmium chloride] .
Key: 3.7
